# assay-system: T1, PCSK9Δhelix (human, UniProt Q8NBP7 31-152; Q8NBP7 168-692)
# T1 construct: Made by TEV cleavage of human PCSK9 M1-Q692 with an engineered TEV site; The new N-terminus of the catalytic domain is S-A168; also called His-PCSK9Δhelix; PCSK9 lacking the P' helix
# T1 sequence (Q8NBP7 31-152, stated change not applied, chain 1 of 2): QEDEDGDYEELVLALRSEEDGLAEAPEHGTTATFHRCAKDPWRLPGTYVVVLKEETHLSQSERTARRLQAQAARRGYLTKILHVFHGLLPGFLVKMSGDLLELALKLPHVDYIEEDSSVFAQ
# T1 sequence (Q8NBP7 other isoform, or with tags, fused parts or gaps mutant, chain 2 of 2): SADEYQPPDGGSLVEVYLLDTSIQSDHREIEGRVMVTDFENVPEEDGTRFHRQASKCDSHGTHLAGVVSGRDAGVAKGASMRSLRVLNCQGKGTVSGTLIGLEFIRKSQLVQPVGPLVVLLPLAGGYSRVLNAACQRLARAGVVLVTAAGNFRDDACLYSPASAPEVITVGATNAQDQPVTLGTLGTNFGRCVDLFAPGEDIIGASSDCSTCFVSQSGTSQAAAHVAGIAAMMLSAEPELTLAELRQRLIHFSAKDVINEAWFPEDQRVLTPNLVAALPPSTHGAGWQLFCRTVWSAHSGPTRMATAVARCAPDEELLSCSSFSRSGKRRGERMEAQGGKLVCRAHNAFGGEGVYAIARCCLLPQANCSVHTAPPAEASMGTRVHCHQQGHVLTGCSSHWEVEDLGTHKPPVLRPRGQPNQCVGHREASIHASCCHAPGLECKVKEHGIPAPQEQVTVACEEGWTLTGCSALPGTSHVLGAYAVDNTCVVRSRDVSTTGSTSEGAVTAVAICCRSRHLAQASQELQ
# protocol-description: TR-FRET competition; competitor Ab20 binding to His-PCSK9Δhelix;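 note: readout is anti-His-APC on PCSK9 with anti-Fc-europium on the Fc-tagged ligand, compound incubated 30 min, normalized signal ratio fitted by four-parameter logistic regression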
* marks the point of attachment. Pentanoyl = CCCCC(=O)*

binder	IC50 [µM]
Ac-MPWNLVRIGLLR-NH2 [Compound 51]	4.69
Ac-DLMPWNLVRIG-NH2 [Compound 48]	49.5
Ac-DAMPWNLVRIGLLR-NH2 [Compound 44]	6.9
Ac-DLMPWALVRIGLLR-NH2 [Compound 62]	49.5
Pentanoyl-WNLVRIGLTR-NH2 (SMILES CCCCC(=O)N[C@@H](Cc1c[nH]c2ccccc12)C(=O)N[C@@H](CC(N)=O)C(=O)N[C@@H](CC(C)C)C(=O)N[C@H](C(=O)N[C@@H](CCCNC(=N)N)C(=O)N[C@H](C(=O)NCC(=O)N[C@@H](CC(C)C)C(=O)N[C@H](C(=O)N[C@@H](CCCNC(=N)N)C(N)=O)[C@@H](C)O)[C@@H](C)CC)C(C)C) [Compound 112]	7.5
Ac-DLMPWNLVRIGLLR-NH2 [Compound 35]	4.8
Ac-DLMPWNLVRI-NH2 [Compound 49]	49.5
Ac-PWNLVRIGLLR-NH2 [Compound 52]	10.2
Ac-DLMPWNLVRIGALR-NH2 [Compound 56]	17.1
Ac-DLMPWNLVRIGLLA-NH2 [Compound 54]	15.4
Ac-DLMPWNLVAIGLLR-NH2 [Compound 59]	49.5
Ac-DLMPWNLVRIGLL-NH2 [Compound 46]	14
Ac-DLMPWNLVRIGL-NH2 [Compound 47]	12.6

All values here come from patent US20200283478A1.
